protocol-details: Metabolic stability in mouse liver microsomes assessed as intrinsic clearance at 1 uM measured upto 60 mins in presence of NADPH regenerating system by LC-MS/MS analysis
Type: ADME, Microsome
condition: read-out: CLH
property-label: microsomal CLint at 1 µM
Form field: result (number plus unit)

// "Cc1ccc(OCCN)cc1C(=O)N[C@H](C)c1cccc(-c2ccoc2)c1" : microsomal CLint at 1 µM value = 25.7 µL/min/mg

// "Cc1ccc(O)cc1CN(C)[C@H](C)c1cccc2ccccc12" : microsomal CLint at 1 µM value = 2490 µL/min/mg

// "Cc1ccc(NC2CNC2)cc1CN(C)[C@H](C)c1cccc2ccccc12" : microsomal CLint at 1 µM value = 13.8 µL/min/mg

* * *

target-or-system: Replicase polyprotein 1ab (Severe acute respiratory syndrome coronavirus 2)
property-label: pIC50
pIC50 is a log-scale quantity: -log10 of the concentration expressed in molar.

// "Cc1ccc(OCCN)cc1C(=O)N[C@H](C)c1cccc(-c2ccc3c(c2)OCCO3)c1" : pIC50 value = 6.01

// "Cc1ccc(OCCN)cc1C(=O)N[C@H](C)c1cccc(-c2c[nH]nc2C)c1" : pIC50 value = 5.71

// "Cc1ccc(OCCN)cc1C(=O)N[C@H](C)c1cccc(-c2ccc(F)cc2)c1" : pIC50 value = 5.91
